test system: carrageenin-induced foot edema; assay: inhibition of carrageenin-induced foot edema test (carrageenin edema, CE); type: in vivo; conditions: oral; dose 0.324 millimoles (μM)/kg [sic]
Structures can show the parent of a compound that is named as a salt.
Let's look at some molecules and their measured CE (% Inhib./μM/kg.).
Express the result in % but write the number alone.

These recorded examples may help you get a feel for the data.
Molecule	CE (% Inhib./μM/kg.) [%]
CCN(CC)CCCC(C)NCC(C)c1ccc2cc(OC)ccc2c1 (centres unmarked)	26
COc1ccc2cc(C(C)CN3CCCCC3CCC3CCCCC3)ccc2c1 (centres unmarked)	52
COc1ccc2cc(C(C)CN3CCC(CCC4CCCCC4)CC3)ccc2c1 (centres unmarked)	38
COc1ccc2cc(C(C)CN3CCCCC3C3CCCCC3)ccc2c1 (centres unmarked) [Example 2, hydrochloride]	69

Query: Answer with reported CE (% Inhib./μM/kg.) of COc1ccc2cc(CCN3CCCCC3CC3CCCCC3)ccc2c1 (centres unmarked)
Reply: 68
